assay: chemical genetic growth profiling, strain panel (AID 1159580);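 further: tested at 20 µM; growth read once vehicle control cultures reached saturation at 30 °C; 1 = growth at the plate median or of vehicle wells; lower values mean less growth of the strain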; details: S. cerevisiae deletion strains, growth OD, locus YDR502C, strain sam2
The campaign covered roughly 5,500 compounds. About 2,000 (36%) were called active. Not shown: some 18% with an inconclusive outcome. No stated cut-off is given here; in the data, active means normalized growth mostly below about 0.91 (no sharp cut-off); inconclusive means no clear call, values can overlap the other calls; inactive means mostly above about 0.92. The list shows a part of the results.
Write down the outcome that applies. Available outcomes: 1 for active, 0 for inactive

Could you kindly confirm the outcome this assay logged for CC(C)CC(NC(=O)C(Cc1ccccc1)NC(=O)CNC(=O)CNC(=O)C(N)Cc1ccc(O)cc1)C(=O)O (stereo not drawn) ?
0

Could you kindly confirm the outcome this assay logged for CC1=C(/C=C/C(C)=C/C=C/C(C)=C/C=C/C=C(C)/C=C/C=C(C)/C=C/C2=C(C)C(=O)C(O)CC2(C)C)C(C)(C)CC(O)C1=O (stereo not drawn) ?
0

Could you kindly confirm the outcome this assay logged for C=C1C([C@]2(C)C(CC(=O)OC)[C@@](C)(COC(C)=O)OC(=O)C[C@@H]2OC(C)=O)[C@@H](OC=O)[C@H](OC(=O)C(OC(C)=O)C(C)CC)[C@@]2(C)[C@H](c3ccoc3)CC(=O)C12O (stereo partly drawn) ?
0

Could you kindly confirm the outcome this assay logged for CN[C@@H](C)[C@@H](O)c1ccccc1 ?
0

Could you kindly confirm the outcome this assay logged for CCN(CC)CCCC(C)Nc1ccnc2cc(Cl)ccc12 (stereo not drawn) ?
0

Could you kindly confirm the outcome this assay logged for CCS(=O)CCSP(=O)(OC)OC (stereo not drawn) ?
0

Could you kindly confirm the outcome this assay logged for CCN(CC)CCCC(C)Nc1c2ccc(Cl)cc2nc2ccc(OC)cc12 (stereo not drawn) ?
1

Could you kindly confirm the outcome this assay logged for CCCCCCCCNC(C)C(O)c1ccc(SC(C)C)cc1 (stereo not drawn) ?
1

Could you kindly confirm the outcome this assay logged for COc1ccc2c(c1OC)C(=O)O[C@@H]2[C@H]1c2cc3c(cc2CCN1C)OCO3 ?
0

Could you kindly confirm the outcome this assay logged for Cc1cc(O)c(C)c(O)c1C(=O)O ?
0

Could you kindly confirm the outcome this assay logged for CNC(C)[C@H](O)c1ccccc1 (stereo partly drawn) ?
0

Could you kindly confirm the outcome this assay logged for CC(NCCc1ccc(O)cc1)C(O)c1ccc(O)cc1 (stereo not drawn) ?
0

Could you kindly confirm the outcome this assay logged for ClC1=C(Cl)C2(Cl)C3C4C=CC(C4)C3C1(Cl)C2(Cl)Cl (stereo not drawn) ?
0

Could you kindly confirm the outcome this assay logged for CC1=C(/C=C/C(C)=C/C=C/C(C)=C/C=C/C=C(C)/C=C/C=C(C)/C=C/C23OC2(C)CC(O)CC3(C)C)C(C)(C)CC(O)C1 (stereo not drawn) ?
0

Could you kindly confirm the outcome this assay logged for CCOC(=O)C(=O)C1(C(=O)OCC)Oc2cc(OC)cc(OC)c2C(=O)C1c1ccccc1 (stereo not drawn) ?
0

Could you kindly confirm the outcome this assay logged for ClC1=C(Cl)C2(Cl)C3C(Cl)C=CC3C1(Cl)C2(Cl)Cl (stereo not drawn) ?
0

Could you kindly confirm the outcome this assay logged for CCC(C)C(OC(C)=O)C(=O)OC1C(O)C2C3(C)C=CC(=O)C(C)(C)C3CC(OC(=O)C(O)C(C)C)C2(C)C23OC2CC(c2ccoc2)C13C (stereo not drawn) ?
0

Could you kindly confirm the outcome this assay logged for CCCCCCCCCCCCCCCC(=O)OC/C=C(C)/C=C/C=C(C)/C=C/C1=C(C)CCCC1(C)C ?
0

====

assay: chemical genetic growth profiling, strain panel (AID 1159580);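 further: tested at 20 µM; growth read once vehicle control cultures reached saturation at 30 °C; 1 = growth at the plate median or of vehicle wells; lower values mean less growth of the strain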; conditions: S. cerevisiae deletion strains, growth OD, locus YGR135W, strain pre9, hits give low values
The campaign covered roughly 5,500 compounds. About 2,000 (36%) were called active. Not shown: some 18% with an inconclusive outcome. This is one part of the list.
assay.endpoint: normalized growth
Quick one: just the number, no unit, thanks!

Answer with the recorded normalized growth of COc1ccc2cc([C@H](C)CO)ccc2c1 only.
0.949

Answer with the recorded normalized growth of CC1=C(CC(=O)O)c2cc(F)ccc2/C1=C\c1ccc(S(C)=O)cc1 (stereo not given) only.
1

Answer with the recorded normalized growth of COP(=O)(OC)OC=C(Cl)Cl only.
0.993

Answer with the recorded normalized growth of OCCN1C[C@@H](O)[C@@H](O)C(O)C1CO (stereo not given in full) only.
1

Answer with the recorded normalized growth of c1cncc(C2CCCCN2)c1 (stereo not given) only.
0.999

====

test: chemical genetic growth profiling, strain panel (AID 1159580);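 further: tested at 20 µM; growth read once vehicle control cultures reached saturation at 30 °C; 1 = growth at the plate median or of vehicle wells; lower values mean less growth of the strain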; conditions: S. cerevisiae deletion strains, growth OD, locus YIL125W, strain kgd1, hits give low values
The whole screen tested about 5,500 compounds, of which about 2,000 (36%) were called active. Not shown: some 18% with an inconclusive outcome. This is one part of the list.
assay.endpoint: normalized growth
Quick one: just the number, no unit, thanks!

Answer with the recorded normalized growth of O=C(O)C1(O)C[C@@H](O)C(O)[C@H](O)C1 (stereo partly specified) only.
1.02

Answer with the recorded normalized growth of ClC1=C(Cl)C2(Cl)C3C4C=CC(C4)C3C1(Cl)C2(Cl)Cl (stereo unspecified) only.
1

Answer with the recorded normalized growth of OCCN1C[C@@H](O)[C@@H](O)C(O)C1CO (stereo partly specified) only.
1

Answer with the recorded normalized growth of CN1CCCN=C1COC(=O)C(O)(c1ccccc1)C1CCCCC1 (stereo unspecified) only.
0.998

Answer with the recorded normalized growth of CCN(CC)CCCC(C)Nc1ccnc2cc(Cl)ccc12 (stereo unspecified) only.
1

Answer with the recorded normalized growth of CN1CCC(=C2c3ccccc3Sc3ccccc32)CC1 only.
1

====

Consider the following compounds; for each one, report its normalized growth.
experiment: chemical genetic growth profiling, strain panel (AID 1159580);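 further: tested at 20 µM; growth read once vehicle control cultures reached saturation at 30 °C; 1 = growth at the plate median or of vehicle wells; lower values mean less growth of the strain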; details: S. cerevisiae deletion strains, growth OD, locus YCL061C, strain MRC1, hits give low values
The whole screen tested about 5,500 compounds, of which about 2,000 (36%) were called active. Inconclusive results (about 18%) are left out. The list shows a part of the results.
Quick one: just the number, no unit, thanks!

Answer with the recorded normalized growth of COc1ccc(NC(=O)c2cc(C(F)(F)F)cc(C(F)(F)F)c2)cn1 only.
0.968

Answer with the recorded normalized growth of Ic1ccc(I)s1 only.
1.03

Answer with the recorded normalized growth of COc1ccc(OC)c(C(O)C(C)N)c1 (stereo unspecified) only.
0.99

Answer with the recorded normalized growth of COc1cc(NS(=O)(=O)c2ccc(N)cc2)nc(OC)n1 only.
0.97

Answer with the recorded normalized growth of CCOC(=O)c1[nH]c(Cc2[nH]c(C(=O)OCC)c(C)c2C)c(C)c1C only.
1.02

Answer with the recorded normalized growth of COc1ccc2c(c1)O[C@@H]1COc3cc(OC)c(OC)cc3[C@@H]1C2=O only.
0.354

Answer with the recorded normalized growth of CC(=O)O[C@@H]1C[C@@]2(C)C(CC[C@@H]2C(C)=O)C2CCC3=CC(=O)CC[C@]3(C)C21 (stereo partly specified) only.
1.01

Answer with the recorded normalized growth of CC1CC2C3CC(F)C4=CC(=O)C=CC4(C)C3(F)C(O)CC2(C)C1(O)C(=O)CO (stereo unspecified) only.
0.999

Answer with the recorded normalized growth of Cc1cccc(C)c1OCC(C)N (stereo unspecified) only.
1.01

Answer with the recorded normalized growth of CC1=C(CC(=O)O)c2cc(F)ccc2/C1=C\c1ccc(S(C)=O)cc1 (stereo unspecified) only.
1.02

Answer with the recorded normalized growth of NC(=O)C(c1ccccc1)(c1ccccc1)C1CCN(CCc2ccc3c(c2)CCO3)C1 (stereo unspecified) only.
1.02

Answer with the recorded normalized growth of CCC(=O)O[C@H]1[C@H](O[C@@H]2[C@@H](C)[C@H](O[C@H]3C[C@@](C)(OC)[C@@H](O)[C@H](C)O3)[C@@H](C)C(=O)O[C@H](CC)[C@@](C)(O)[C@H](O)[C@@H](C)C(=O)[C@H](C)C[C@@]2(C)O)O[C@H](C)C[C@@H]1N(C)C only.
0.949

Answer with the recorded normalized growth of c1ccc(N=Nc2ccccc2)cc1 only.
0.993

Answer with the recorded normalized growth of CN(C)CC/C=C1\c2ccccc2Sc2ccc(Cl)cc21 only.
0.987

Answer with the recorded normalized growth of COc1ccc(C2=C(C(C)=O)C(C)=NC(=S)C2C#N)cc1 (stereo unspecified) only.
1.01

Answer with the recorded normalized growth of ClC1=C(Cl)C2(Cl)C3C(Cl)C=CC3C1(Cl)C2(Cl)Cl (stereo unspecified) only.
0.996

Answer with the recorded normalized growth of CC1CC2C3CCC4=CC(=O)C=C[C@]4(C)[C@@]3(F)[C@@H](O)C[C@]2(C)[C@@]1(O)C(=O)CO (stereo partly specified) only.
0.995

Answer with the recorded normalized growth of N=c1ccn2c(n1)O[C@@H]1C2O[C@H](CO)[C@H]1O (stereo partly specified) only.
0.988

Answer with the recorded normalized growth of ClC1=C(Cl)C2(Cl)C3C4C=CC(C4)C3C1(Cl)C2(Cl)Cl (stereo unspecified) only.
0.993

Answer with the recorded normalized growth of CCN(CC)CCCC(C)Nc1c2ccc(Cl)cc2nc2ccc(OC)cc12 (stereo unspecified) only.
1.01

Answer with the recorded normalized growth of CC(=O)[C@H]1CCC2C3CCC4=CC(=O)CC[C@]4(C)C3CC[C@@]21C (stereo partly specified) only.
0.955

Answer with the recorded normalized growth of C[C@]12CCC(=O)C=C1CCC1C2CC[C@@]2(C)C1CC[C@@H]2O (stereo partly specified) only.
0.993

Answer with the recorded normalized growth of CC(N)CCCC(C)(C)O (stereo unspecified) only.
0.971

Answer with the recorded normalized growth of O=C(CSc1nnnn1-c1ccccc1)NC1Cc2ccccc2C1 only.
1.02

Answer with the recorded normalized growth of Cc1cc(O)c(C=O)c(O)c1C(=O)O only.
1.01

Answer with the recorded normalized growth of Cc1ccc(NC(=S)NNC(C)(C)C)cc1 only.
0.972

Answer with the recorded normalized growth of CNC(C)[C@H](O)c1ccccc1 (stereo partly specified) only.
0.995

Answer with the recorded normalized growth of CC(=O)OCC(=O)[C@@]1(O)CCC2C3CCC4=CC(=O)CC[C@]4(C)C3C(=O)C[C@@]21C (stereo partly specified) only.
0.982

Answer with the recorded normalized growth of CO[C@H]1[C@H](O)[C@H](O[C@H]2CC[C@]3(C)C4CC[C@]5(C)C(C6=CC(=O)OC6)CC[C@]5(O)C4CC[C@@H]3C2)O[C@@H](C)[C@@H]1O (stereo partly specified) only.
0.996

Answer with the recorded normalized growth of O=S(=O)(Nc1cccc2cccnc12)c1cc(Cl)c(Cl)cc1Cl only.
0.804

Answer with the recorded normalized growth of COc1ccc2c3c1O[C@H]1C[C@@H](O)C=C[C@@]31CCN(C)C2 only.
1.02
